biological target: recombinant eIF4E (Homo sapiens (Human), UniProt P06730); assay: Fluorescence polarization competition assay for eIF4E binding potency; conditions: inhibition of eIF4E/EDA-m7GDP-ATTO-550 binding; calculated IC50 values, Table 4B; read-out: IC50
Sequence (P06730 whole entry): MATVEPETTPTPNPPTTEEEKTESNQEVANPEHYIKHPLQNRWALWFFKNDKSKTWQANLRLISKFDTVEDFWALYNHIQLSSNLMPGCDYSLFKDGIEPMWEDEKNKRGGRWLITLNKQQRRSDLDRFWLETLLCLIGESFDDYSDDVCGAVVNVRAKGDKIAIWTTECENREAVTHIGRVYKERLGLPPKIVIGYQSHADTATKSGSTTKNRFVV
readout type: IC50 (nM)
Enter your answer as a number in nM; do not include the unit.

Here's what some known entries look like.
- C#Cc1cc2nccc(-c3cc(Cl)ccc3OCCn3c(C)nc4cc(C(F)(F)F)c(N5CCN(C)CC5)c(C#N)c4c3=O)c2s1: 19.4
- COC(=O)c1csc2c(-c3cc(Cl)ccc3C#CCn3c(C)nc4cnc(N5CCN(CC(F)F)CC5)c(C#N)c4c3=O)ccnc12: 482

Specify IC50 for Cc1nc2cc(C(F)(F)F)c(CCN(C)C)c(C#N)c2c(=O)n1CC#Cc1ccc(Cl)cc1-c1ccnc2c(C(=O)O)csc12 and stop. 38.3

###

target: recombinant eIF4E (Homo sapiens (Human)); test: Fluorescence polarization competition assay for eIF4E binding potency; settings: inhibition of eIF4E/EDA-m7GDP-ATTO-550 binding; calculated IC50 values, Table 4B; read-out: IC50
Reported pIC50 values for the following compounds.
The read-out pIC50 is expressed as -log10 of concentration in moles per litre.

Here's what some known entries look like.
* Cc1nc2cnc(N(C)[C@@H]3CC[C@@H](N(C)CC(F)F)C3)c(C#N)c2c(=O)n1CC#Cc1ccc(Cl)cc1-c1ccnc2c(C(=O)O)csc12 [compound 1581] | 7.84
* Cc1nc2cnc(N(C)C3CCN(CC(F)(F)C(F)F)CC3)c(C#N)c2c(=O)n1CC#Cc1ccc(Cl)cc1-c1ccnc2c(C(=O)NS(=O)(=O)C3COC3)csc12 [compound 1704] | 8.18
* Cc1nc2cnc(N3CCC4(CC3)CN(CC(F)F)C4)c(C#N)c2c(=O)n1CC#Cc1ccc(Cl)cc1-c1ccnc2c(C(=O)NS(C)(=O)=O)csc12 [compound 1648] | 7.88

Continue with the next compound.
Specify pIC50 for Cc1cc(-c2cc(Cl)ccc2OCCn2c(C)nc3cc(C(F)(F)F)c(CC4CCN(C)CC4=O)c(C#N)c3c2=O)c2scc(C(=O)O)c2n1 (stereo not drawn) [compound 1908] and stop. 8.29

###

Molecular target: recombinant eIF4E (Homo sapiens (Human), UniProt P06730)
Assay: Fluorescence polarization competition assay for eIF4E binding potency
Conditions: inhibition of eIF4E/EDA-m7GDP-ATTO-550 binding by 50%; Table 4B calculated values; read-out: IC50
Experimental: Compounds were screened for eIF4E binding potency using a fluorescence polarization competition assay. All binding reactions were performed in fluorescence polarization buffer (FPB) containing 20 mM Tris pH 7.5, 100 mM NaCl, 1 mM DTT, and 0.02% Tween-20. Final binding reactions contained 75 nM recombinant eIF4E (Beryllium, custom order), 20 nM EDA-m^7GDP-ATTO-550 (Jena Bioscience, NU-827-550) and varying concentrations of the inhibitory compound of interest. […]
pIC50: −log10 of the molar value.
Label fulfilled when pIC50 is at or above 7; anything below gets not fulfilled.

Some solved entries appear below for comparison.
- Cc1nc2c(F)c(CN(C)C)c(C(F)F)c(C#N)c2c(=O)n1CCOc1ccc(Cl)cc1-c1ccnc2c(C(=O)O)csc12 [compound 518]: fulfilled
- CCc1cc(-c2cc(Cl)ccc2OCCn2c(C)nc3cc(C(F)(F)F)c(N4CCN(C)CC4)cc3c2=O)c2scc(C(=O)O)c2n1 [compound 1083]: fulfilled
- Cc1nc2cc(C(F)(F)F)c(N3CC4(C3)CN(C3CC3)C4)c(C#N)c2c(=O)n1CCCc1ccc(Cl)cc1-c1ccnc2c(C(=O)O)csc12 [compound 1158]: fulfilled
- Cc1nc2ccc(C#N)c(C#N)c2c(=O)n1CCOc1ccc(Cl)cc1-c1ccnc2c(C(=O)O)csc12 [compound 228]: fulfilled

API: above_or_equal(metric=pIC50, cutoff=7) for item Cc1nc2cc(C(F)(F)F)c(Cl)c(C#N)c2c(=O)n1CCOc1cc(F)c(Cl)cc1-c1ccnc2c(C(=O)O)csc12 [compound 505] fulfilled

API: above_or_equal(metric=pIC50, cutoff=7) for item C=S(C)(=O)c1cc(C#N)c2c(=O)n(CCOc3ccc(Cl)cc3-c3ccnc4c(C(=O)O)csc34)c(C)c(F)c2c1 (centres unmarked) [compound 274] fulfilled
